Organism: Rattus norvegicus
ASSAY NAME: Open TG-GATES - Regimen: Single
Format: toxicity, organism-based, Sprague-Dawley
Design: regimen Single, gender Male, age 6 weeks
CONDITION SET: in vivo, po, 0 mg/kg, 6 h, tissue Blood, route gavage, dose level Control
ENDPOINT LABEL: Bas (%)

# COMPOUND, NUMERIC VALUE
measured = [
    ("O=[N+]([O-])c1ccc(O)c([N+](=O)[O-])c1", 0),
    ("C[C@H]1O[C@H](O[C@H]2[C@H](O)[C@@H](O)[C@@H](O[C@H]3[C@H](O)[C@@H](O)C(O)O[C@@H]3CO)O[C@@H]2CO)[C@H](O)[C@@H](O)[C@@H]1N[C@H]1C=C(CO)[C@@H](O)[C@H](O)[C@H]1O (some centres undefined)", 0.2),
    ("CCOC(=O)C(C)(C)Oc1ccc(Cl)cc1 [CLOFIBRATE]", 0),
    ("Cn1cc[nH]c1=S", 0),
]

----------
Organism: Rattus norvegicus
ASSAY NAME: Open TG-GATES - Regimen: Single
Type: toxicity, organism-based, Sprague-Dawley
Set-up: regimen Single, gender Male, age 6 weeks
CONDITION SET: in vivo, po, 0 mg/kg, 9 h, tissue Plasma, route gavage, dose level Control

# COMPOUND, A/G
measured = [
    ("C=C(C)[C@H]1Cc2c(ccc3c2O[C@@H]2COc4cc(OC)c(OC)cc4[C@@H]2C3=O)O1 [ROTENONE]", 2.5),
    ("Cn1cc[nH]c1=S [METHIMAZOLE]", 1.1),
    ("Cc1cccc(C)c1OCC(C)N (stereo unspecified) [MEXILETINE]", 1.3),
    ("CCOC(=O)C(C)(C)Oc1ccc(Cl)cc1 [CLOFIBRATE]", 1.6),
    ("C[C@H]1O[C@H](O[C@H]2[C@H](O)[C@@H](O)[C@@H](O[C@H]3[C@H](O)[C@@H](O)C(O)O[C@@H]3CO)O[C@@H]2CO)[C@H](O)[C@@H](O)[C@@H]1N[C@H]1C=C(CO)[C@@H](O)[C@H](O)[C@H]1O (stereo partly specified) [ACARBOSE]", 0.9),
    ("Cc1ccc2cc3c(ccc4ccccc43)c3c2c1CC3 [3-METHYLCHOLANTHRENE]", 1),
]

----------
Species: Rattus norvegicus
ASSAY NAME: Open TG-GATES - Regimen: Daily Repeat
Type: toxicity, organism-based, Sprague-Dawley
Set-up: regimen Daily Repeat, gender Male, age 6 weeks
CONDITION SET: in vivo, po, 0 mg/kg, […], tissue Plasma, route gavage, dose level Control, time 28 day

# MOLECULE, Ca
rows = [
    ("Cc1cccc(C)c1OCC(C)N (stereo unspecified)", "10.5 mg/dL"),
    ("O=C1CN(/N=C/c2ccc([N+](=O)[O-])o2)C(=O)N1", "10.4 mg/dL"),
    ("O=[N+]([O-])c1ccc(O)c([N+](=O)[O-])c1", "11.2 mg/dL"),
    ("C[C@H]1O[C@H](O[C@H]2[C@H](O)[C@@H](O)[C@@H](O[C@H]3[C@H](O)[C@@H](O)C(O)O[C@@H]3CO)O[C@@H]2CO)[C@H](O)[C@@H](O)[C@@H]1N[C@H]1C=C(CO)[C@@H](O)[C@H](O)[C@H]1O (stereo partly specified)", "10.8 mg/dL"),
    ("C=C(C)[C@H]1Cc2c(ccc3c2O[C@@H]2COc4cc(OC)c(OC)cc4[C@@H]2C3=O)O1", "10.9 mg/dL"),
    ("CCOC(=O)C(C)(C)Oc1ccc(Cl)cc1 [CLOFIBRATE]", "10.4 mg/dL"),
]

----------
Organism: Rattus norvegicus
ASSAY NAME: Open TG-GATES - Regimen: Single
Assay type: toxicity, organism-based, Sprague-Dawley
Set-up: regimen Single, gender Male, age 6 weeks
CONDITION SET: in vivo, po, 0 mg/kg, 3 h, tissue Plasma, route gavage, dose level Control

# COMPOUND, K [meq/L]
rows = [
    ("O=[N+]([O-])c1ccc(O)c([N+](=O)[O-])c1", 4.4),
    ("Cc1cccc(C)c1OCC(C)N (centres undefined)", 4),
    ("C=C(C)[C@H]1Cc2c(ccc3c2O[C@@H]2COc4cc(OC)c(OC)cc4[C@@H]2C3=O)O1", 4.4),
    ("CCOC(=O)C(C)(C)Oc1ccc(Cl)cc1 [CLOFIBRATE]", 3.8),
]

----------
Species: Rattus norvegicus
ASSAY NAME: Open TG-GATES - Regimen: Daily Repeat
Type: toxicity, organism-based, Sprague-Dawley
Design: regimen Daily Repeat, gender Male, age 6 weeks
CONDITION SET: in vivo, po, 0 mg/kg, 72 h, tissue Plasma, route gavage, dose level Control, time 3 day
The threshold is 40 IU/L. Values of ALT beneath it are tagged label 1; values meeting or exceeding it are tagged label 0.

# MOLECULE, GROUP
records = [
    ("CCOC(=O)C(C)(C)Oc1ccc(Cl)cc1 [CLOFIBRATE]", "label 1"),
    ("O=[N+]([O-])c1ccc(O)c([N+](=O)[O-])c1", "label 1"),
    ("Cn1cc[nH]c1=S", "label 0"),
    ("C[C@H]1O[C@H](O[C@H]2[C@H](O)[C@@H](O)[C@@H](O[C@H]3[C@H](O)[C@@H](O)C(O)O[C@@H]3CO)O[C@@H]2CO)[C@H](O)[C@@H](O)[C@@H]1N[C@H]1C=C(CO)[C@@H](O)[C@H](O)[C@H]1O (some centres not stated)", "label 0"),
    ("O=C1CN(/N=C/c2ccc([N+](=O)[O-])o2)C(=O)N1", "label 1"),
    ("OCCN1CCN(CCCN2c3ccccc3Sc3ccc(C(F)(F)F)cc32)CC1", "label 1"),
]

----------
Species: Rattus norvegicus
ASSAY NAME: Open TG-GATES - Regimen: Daily Repeat
Assay type: toxicity, organism-based, Sprague-Dawley
Parameters: regimen Daily Repeat, gender Male, age 6 weeks
CONDITION SET: in vivo, po, 0 mg/kg, […], tissue Blood, route gavage, dose level Control, time 28 day

# MOLECULE, Neu [%]
records = [
    ("OCCN1CCN(CCCN2c3ccccc3Sc3ccc(C(F)(F)F)cc32)CC1", 9.8),
    ("O=C1CN(/N=C/c2ccc([N+](=O)[O-])o2)C(=O)N1", 12.4),
    ("C[C@H]1C(=O)O[C@@H]2CCN3CC=C(COC(=O)[C@](C)(O)[C@]1(C)O)[C@H]23", 13.6),
    ("Cn1cc[nH]c1=S", 13.2),
    ("CCOC(=O)C(C)(C)Oc1ccc(Cl)cc1 [CLOFIBRATE]", 14.4),
    ("Cc1cccc(C)c1OCC(C)N (configuration not stated)", 13.8),
    ("C[C@H]1O[C@H](O[C@H]2[C@H](O)[C@@H](O)[C@@H](O[C@H]3[C@H](O)[C@@H](O)C(O)O[C@@H]3CO)O[C@@H]2CO)[C@H](O)[C@@H](O)[C@@H]1N[C@H]1C=C(CO)[C@@H](O)[C@H](O)[C@H]1O (some centres not stated)", 16.2),
]

----------
Mono listing for selected compounds.
Organism: Rattus norvegicus
ASSAY NAME: Open TG-GATES - Regimen: Single
Assay type: toxicity, organism-based, Sprague-Dawley
Design: regimen Single, gender Male, age 6 weeks
CONDITION SET: in vivo, po, 0 mg/kg, 9 h, tissue Blood, route gavage, dose level Control
ENDPOINT LABEL: Mono (%)

# COMPOUND, ENDPOINT LABEL, READOUT UNITS, NUMERIC VALUE
rows = [
    ("Cc1ccc2cc3c(ccc4ccccc43)c3c2c1CC3", "Mono", "%", 2.6),
    ("C[C@H]1C(=O)O[C@@H]2CCN3CC=C(COC(=O)[C@](C)(O)[C@]1(C)O)[C@H]23", "Mono", "%", 2.6),
    ("CCOC(=O)C(C)(C)Oc1ccc(Cl)cc1 [CLOFIBRATE]", "Mono", "%", 2.6),
    ("O=[N+]([O-])c1ccc(O)c([N+](=O)[O-])c1", "Mono", "%", 8.8),
]

----------
Listed next: entries and their corresponding Hb.
Organism: Rattus norvegicus
ASSAY NAME: Open TG-GATES - Regimen: Daily Repeat
Type: toxicity, organism-based, Sprague-Dawley
Design: regimen Daily Repeat, gender Male, age 6 weeks
CONDITION SET: in vivo, po, 0 mg/kg, 72 h, tissue Blood, route gavage, dose level Control, time 3 day
ENDPOINT LABEL: Hb (g/dL)

# COMPOUND, NUMERIC VALUE
rows = [
    ("O=C1CN(/N=C/c2ccc([N+](=O)[O-])o2)C(=O)N1 [NITROFURANTOIN]", 13.7),
    ("Cc1cccc(C)c1OCC(C)N (centres undefined) [MEXILETINE]", 12.6),
    ("Cn1cc[nH]c1=S [METHIMAZOLE]", 13.8),
    ("C[C@H]1O[C@H](O[C@H]2[C@H](O)[C@@H](O)[C@@H](O[C@H]3[C@H](O)[C@@H](O)C(O)O[C@@H]3CO)O[C@@H]2CO)[C@H](O)[C@@H](O)[C@@H]1N[C@H]1C=C(CO)[C@@H](O)[C@H](O)[C@H]1O (some centres undefined) [ACARBOSE]", 13.7),
]

# credit: ChEMBL document CHEMBL3885861
